Test system: RARb:RXRa (NR concentration 270 nM, RXRa partner concentration 90 nM)
Test: PBM binding z-score (relative to random genomic background probes); higher = stronger binding; sequences stand for … in GC…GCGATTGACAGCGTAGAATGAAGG
Outcome: met for PBM binding z-score of at least 2; not met for anything lower.

Exercise: // inclusive: PBM binding z-score at least 2? input: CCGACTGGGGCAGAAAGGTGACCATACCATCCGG
Key: not met

Exercise: Form field: PBM binding z-score at least 2? Entry: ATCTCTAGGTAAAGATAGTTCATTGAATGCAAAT
Key: not met

Exercise: Form field: PBM binding z-score at least 2? Entry: ATCTCTAGGTTAGACTCAGTTCAGTGAAGAACGC
Key: not met

Exercise: Kindly determine if PBM binding z-score recorded for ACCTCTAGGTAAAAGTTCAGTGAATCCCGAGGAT is above or exactly 2.
Key: met

Exercise: Would you say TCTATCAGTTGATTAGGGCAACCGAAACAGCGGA shows PBM binding z-score at minimum 2?
Key: not met

Exercise: Quick check, PBM binding z-score >= 2? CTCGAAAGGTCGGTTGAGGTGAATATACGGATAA
Key: met

Exercise: Reported PBM binding z-score at or above 2? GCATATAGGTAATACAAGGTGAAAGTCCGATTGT
Key: not met

Exercise: Does PBM binding z-score meet or surpass 2 for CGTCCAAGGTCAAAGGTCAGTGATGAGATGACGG ?
Key: met

Exercise: Threshold query (PBM binding z-score >= 2) on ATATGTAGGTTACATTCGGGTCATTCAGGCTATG
Key: met

Exercise: Does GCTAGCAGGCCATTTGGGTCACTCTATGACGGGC have a reported PBM binding z-score of at least 2?
Key: not met

###

System: VDR homodimer (NR concentration 270 nM)
Assay: PBM binding z-score (relative to random genomic background probes); higher = stronger binding; sequences stand for … in GC…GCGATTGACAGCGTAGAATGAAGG
Decide by PBM binding z-score: equal to or exceeding 0.4 means Criterion met, less means Criterion not met.

Exercise: hey, is PBM binding z-score for this one >= 0.4? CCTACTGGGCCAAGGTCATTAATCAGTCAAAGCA
Key: Criterion met

Exercise: Tell me whether PBM binding z-score is at least 0.4 here: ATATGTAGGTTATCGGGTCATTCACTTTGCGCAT
Key: Criterion met

Exercise: Please tell me: is the sequence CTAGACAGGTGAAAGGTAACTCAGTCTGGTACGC at or over 0.4 in terms of PBM binding z-score?
Key: Criterion not met

Exercise: Reported PBM binding z-score reaches at least 0.4 for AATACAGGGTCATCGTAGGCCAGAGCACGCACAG ?
Key: Criterion met

Exercise: Can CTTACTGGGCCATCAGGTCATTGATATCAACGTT be said to have PBM binding z-score at or above 0.4?
Key: Criterion met

Exercise: Is the recorded value of PBM binding z-score equal to or greater than 0.4 for this sequence? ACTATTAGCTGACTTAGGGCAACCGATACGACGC
Key: Criterion not met

Exercise: Determine whether measured PBM binding z-score meets or exceeds 0.4 for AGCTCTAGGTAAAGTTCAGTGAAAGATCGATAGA
Key: Criterion met

Exercise: Quick check, PBM binding z-score >= 0.4? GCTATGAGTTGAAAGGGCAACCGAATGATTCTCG
Key: Criterion met

Exercise: Check if PBM binding z-score >= 0.4 (inclusive). Item: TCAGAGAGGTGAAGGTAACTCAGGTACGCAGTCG
Key: Criterion not met

Exercise: Could you verify whether the entry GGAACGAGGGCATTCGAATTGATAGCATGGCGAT shows PBM binding z-score of no less than 0.4?
Key: Criterion met

Exercise: Is reported PBM binding z-score greater than or equal to 0.4 here: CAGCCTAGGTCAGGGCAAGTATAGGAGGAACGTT
Key: Criterion not met

Exercise: Given the entry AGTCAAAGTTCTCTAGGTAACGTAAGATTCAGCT , answer whether its PBM binding z-score meets or surpasses 0.4.
Key: Criterion not met

Exercise: Is PBM binding z-score at least 0.4? Consider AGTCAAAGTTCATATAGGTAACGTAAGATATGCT
Key: Criterion met

Exercise: Has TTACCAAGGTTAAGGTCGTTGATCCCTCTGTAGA a recorded PBM binding z-score greater than or equal to 0.4?
Key: Criterion met

Exercise: Given the entry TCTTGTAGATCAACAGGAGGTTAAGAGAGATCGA , answer whether its PBM binding z-score meets or surpasses 0.4.
Key: Criterion not met

Exercise: Evaluate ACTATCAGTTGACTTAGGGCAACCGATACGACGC : PBM binding z-score at minimum 0.4?
Key: Criterion not met

Exercise: Could you tell me if the measured PBM binding z-score of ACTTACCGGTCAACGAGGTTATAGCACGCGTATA reaches 0.4 or more?
Key: Criterion met

Exercise: Given the entry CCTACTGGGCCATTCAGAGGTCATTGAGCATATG , answer whether its PBM binding z-score meets or surpasses 0.4.
Key: Criterion met

Exercise: Kindly determine if PBM binding z-score recorded for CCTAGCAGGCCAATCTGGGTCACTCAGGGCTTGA is above or exactly 0.4.
Key: Criterion not met

Exercise: # check: PBM binding z-score of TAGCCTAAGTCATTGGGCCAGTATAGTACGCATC is greater than or equal to 0.4
Key: Criterion not met

Exercise: Is PBM binding z-score at least 0.4? Consider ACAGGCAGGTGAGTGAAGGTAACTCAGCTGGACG
Key: Criterion not met

Exercise: Record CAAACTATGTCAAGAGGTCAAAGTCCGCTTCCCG ; criterion: PBM binding z-score no lower than 0.4. Met?
Key: Criterion met

Exercise: Given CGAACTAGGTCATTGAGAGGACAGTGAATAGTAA , state whether its PBM binding z-score is at least 0.4.
Key: Criterion met

Exercise: API: above_or_equal(metric=PBM binding z-score, cutoff=0.4) for item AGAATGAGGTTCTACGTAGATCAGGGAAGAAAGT
Key: Criterion not met

Exercise: Given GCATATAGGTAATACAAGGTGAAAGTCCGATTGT , state whether its PBM binding z-score is at least 0.4.
Key: Criterion not met

Exercise: Is it the case that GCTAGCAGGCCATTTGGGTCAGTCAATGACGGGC has PBM binding z-score reaching or exceeding 0.4?
Key: Criterion not met

Exercise: Reported PBM binding z-score at or above 0.4? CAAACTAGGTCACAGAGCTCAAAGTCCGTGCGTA
Key: Criterion met

Exercise: Check the entry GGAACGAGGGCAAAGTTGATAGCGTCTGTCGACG : does PBM binding z-score equal or exceed 0.4?
Key: Criterion met

Exercise: Reported PBM binding z-score reaches at least 0.4 for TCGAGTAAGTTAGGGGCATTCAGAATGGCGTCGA ?
Key: Criterion met

Exercise: Please indicate if the recorded PBM binding z-score for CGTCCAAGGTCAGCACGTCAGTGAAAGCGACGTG meets or exceeds 0.4.
Key: Criterion met

Exercise: Reported PBM binding z-score at or above 0.4? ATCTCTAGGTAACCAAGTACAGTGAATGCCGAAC
Key: Criterion not met
